- Tested system: UniProt P30411
- Sequence (P30411 whole entry): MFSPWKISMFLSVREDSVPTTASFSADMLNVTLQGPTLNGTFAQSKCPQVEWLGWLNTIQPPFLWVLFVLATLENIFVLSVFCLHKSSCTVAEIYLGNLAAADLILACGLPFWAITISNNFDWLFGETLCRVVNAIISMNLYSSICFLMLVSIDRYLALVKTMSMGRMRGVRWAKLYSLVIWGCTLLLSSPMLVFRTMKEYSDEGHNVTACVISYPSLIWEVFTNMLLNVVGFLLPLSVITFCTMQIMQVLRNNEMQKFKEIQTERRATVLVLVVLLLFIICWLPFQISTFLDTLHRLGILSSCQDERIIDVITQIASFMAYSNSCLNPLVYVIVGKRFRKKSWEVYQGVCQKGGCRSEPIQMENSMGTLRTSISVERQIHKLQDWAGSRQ
- Protocol notes: Displacement of [3H]BK from human bradykinin B2 receptor transfected in CHO cells
Entries and their Ki values follow.
Return type: number; implicit unit nM.

# Structure smiles, Ki [nM]
rows = [
    ("Cc1cc(C)c2cccc(OCc3c(Cl)ccc(S(=O)(=O)NC4(C(=O)N5CCN(C(=O)C[N+](C)(C)C)CC5)CCCC4)c3Cl)c2n1", 0.398),
    ("Cc1cc(C)c2cccc(OCc3c(Cl)ccc(S(=O)(=O)NC4(C(=O)N5CCN(C(=O)[C@@H](N)CC[N+](C)(C)C)CC5)CCCC4)c3Cl)c2n1", 0.316),
]

Query block: Item under review: "Cc1cc(C)c2cccc(OCc3c(Cl)ccc(S(=O)(=O)NC(C)(C)C(=O)N4CCN(C(=O)[C@@H](N)CCCCNC(=N)N)CC4)c3Cl)c2n1" . Reported Ki?
Result block: 0.631
